Data provenance is patent US10322112B2.

target: LasR (Pseudomonas aeruginosa)
Construct: expressed in transfected cells; host or cells: E. coli JLD271
Sequence (P25084 whole entry): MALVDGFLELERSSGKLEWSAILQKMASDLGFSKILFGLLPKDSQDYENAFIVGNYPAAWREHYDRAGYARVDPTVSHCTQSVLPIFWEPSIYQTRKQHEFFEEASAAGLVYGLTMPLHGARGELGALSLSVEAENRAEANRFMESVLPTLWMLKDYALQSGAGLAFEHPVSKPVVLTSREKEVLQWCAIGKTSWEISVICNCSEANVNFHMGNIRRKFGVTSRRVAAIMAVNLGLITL
assay.text: E. coli reporter gene primary antagonism assay, LasR
Format: cell-based
reported.conditions: compounds at 100 mm against 2 nm OdDHL; E. coli beta-galactosidase reporter strain JLD271/pJN105L/pSC11; untreated culture = 100%; negative values indicate receptor agonism; error ±10%
Friendly reminder: Inhibition [%] LasR below 80% is yes (1), at or above is no (0).

Challenge: For "O=C(Cc1ccc(Br)cc1)N[C@@H]1CCOC1=O" , is the recorded Inhibition [%] LasR below the cut-off of 80%?
Response given: yes (1)

Challenge: I wonder whether "O=C(Cc1ccc(SC(F)(F)F)cc1)N[C@H]1CCOC1=O" has Inhibition [%] LasR below 80%. Can you tell?
Response given: yes (1)

Challenge: Please indicate whether the reported Inhibition [%] LasR of "COc1ccc(OCC(=O)N[C@H]2CCOC2=O)cc1" is strictly below 80%.
Response given: no (0)

Challenge: Problem: For the molecule "O=C(Cc1ccc(I)cc1)N[C@H]1CCOC1=O" , is Inhibition [%] LasR under 80%?
Response given: yes (1)

Challenge: Hi there! Is Inhibition [%] LasR for "CSc1ccc(CC(=O)N[C@H]2CCOC2=O)cc1" below 80%, do you know?
Response given: no (0)

Challenge: Decide: Inhibition [%] LasR of "CSc1ccc(CCC(=O)N[C@H]2CCOC2=O)cc1" strictly below 80%?
Response given: yes (1)

Challenge: Threshold test, Inhibition [%] LasR < 80%: "O=C(COc1ccc(C(F)(F)F)cc1)N[C@H]1CCOC1=O"
Response given: yes (1)

Challenge: Please determine if "O=C(Cc1c(F)c(F)c(F)c(F)c1F)N[C@H]1CCOC1=O" is below 80% in terms of Inhibition [%] LasR.
Response given: yes (1)

Challenge: Please let me know if "O=C(COc1ccc(OC(F)(F)F)cc1)N[C@H]1CCOC1=O" shows Inhibition [%] LasR below 80%.
Response given: yes (1)

Challenge: Here's an entry: "O=C(Cc1ccc([N+](=O)[O-])cc1)N[C@H]1CCOC1=O" . Is its Inhibition [%] LasR below 80%?
Response given: no (0)

Challenge: Determine whether this molecule shows Inhibition [%] LasR lower than 80% (ties excluded): "Cc1ccc(OCC(=O)N[C@H]2CCOC2=O)cc1"
Response given: no (0)

Challenge: Is 80% strictly greater than the molecule's reported Inhibition [%] LasR? molecule: "O=C(COc1ccc(I)cc1)N[C@H]1CCOC1=O"
Response given: yes (1)

Challenge: Record "O=C(CCCC1CCCCC1)N[C@H]1CCOC1=O" : is its Inhibition [%] LasR strictly below 80%?
Response given: yes (1)

Challenge: Consider "O=C(Cc1ccc(C(F)(F)F)cc1)N[C@H]1CCOC1=O" . Does its Inhibition [%] LasR lie strictly below 80%?
Response given: no (0)

Challenge: Lab log: compare recorded Inhibition [%] LasR with 80%; is it strictly lower for "O=C(COc1ccc(Br)cc1)N[C@H]1CCOC1=O" ?
Response given: yes (1)

Challenge: Dear reviewer, please state whether "O=C(Cc1ccc(Cl)c(Cl)c1)N[C@H]1CCOC1=O" has Inhibition [%] LasR strictly beneath 80%.
Response given: yes (1)
